Species on record: Rattus norvegicus
METHOD NOTES: Open TG-GATES - Regimen: Single
Type: toxicity, organism-based, Sprague-Dawley
Design: regimen Single, gender Male, age 6 weeks
CONDITION NOTES: in vivo, po, 100 mg/kg, 9 h, tissue Plasma, route gavage, dose level Low
Recorded PL, one value per entry.

COMPOUND | PL, mg/dL
CCc1cc(C(N)=S)ccn1 [ETHIONAMIDE] | 100.4
O=C(O)c1cn(C2CC2)c2cc(N3CCNCC3)c(F)cc2c1=O | 142.4
O=C(O)c1cc(/N=N/c2ccc(S(=O)(=O)Nc3ccccn3)cc2)ccc1O | 145.4
C[C@H](CS)C(=O)N1CCC[C@H]1C(=O)O | 122.4
Clc1ccccc1CN1CCc2sccc2C1 | 141.6

* * *

Organism: Rattus norvegicus
METHOD NOTES: Open TG-GATES - Regimen: Single
Assay type: toxicity, organism-based, Sprague-Dawley
Set-up: regimen Single, gender Male, age 6 weeks
CONDITION NOTES: in vivo, po, 0 mg/kg, 6 h, tissue Blood, route gavage, dose level Control
Ht strictly less than 40% = true. Otherwise false.

MOLECULE | CLASS LABEL
CCc1cc(C(N)=S)ccn1 [ETHIONAMIDE] | false
COc1ccc(Cc2nccc3cc(OC)c(OC)cc23)cc1OC | false
Clc1ccccc1CN1CCc2sccc2C1 | true
CC(=O)Oc1ccccc1C(=O)O | true
O=C(O)c1cc(/N=N/c2ccc(S(=O)(=O)Nc3ccccn3)cc2)ccc1O | true

* * *

Species on record: Rattus norvegicus
METHOD NOTES: Open TG-GATES - Regimen: Single
Format: toxicity, organism-based, Sprague-Dawley
Set-up: regimen Single, gender Male, age 6 weeks
CONDITION NOTES: in vivo, po, 100 mg/kg, 6 h, tissue Plasma, route gavage, dose level Low

COMPOUND | MEASURE UNIT | TBIL
Clc1ccccc1CN1CCc2sccc2C1 | mg/dL | 0.1
CCc1cc(C(N)=S)ccn1 [ETHIONAMIDE] | mg/dL | 0.4
O=C(O)c1cn(C2CC2)c2cc(N3CCNCC3)c(F)cc2c1=O | mg/dL | 0.3
C[C@H](CS)C(=O)N1CCC[C@H]1C(=O)O | mg/dL | 0.4
O=C(O)c1cc(/N=N/c2ccc(S(=O)(=O)Nc3ccccn3)cc2)ccc1O | mg/dL | 0.1

* * *

Species: Rattus norvegicus
METHOD NOTES: Open TG-GATES - Regimen: Single
Format: toxicity, organism-based, Sprague-Dawley
Parameters: regimen Single, gender Male, age 6 weeks
CONDITION NOTES: in vivo, po, 300 mg/kg, 6 h, route gavage, dose level Middle
Recorded TERMINAL_BW, one value per entry.

COMPOUND | MEASURE UNIT | TERMINAL_BW
CCc1cc(C(N)=S)ccn1 [ETHIONAMIDE] | g | 225.7
C[C@H](CS)C(=O)N1CCC[C@H]1C(=O)O [CAPTOPRIL] | g | 221.9
O=C(O)c1cc(/N=N/c2ccc(S(=O)(=O)Nc3ccccn3)cc2)ccc1O [SULFASALAZINE] | g | 209.1
O=C(O)c1cn(C2CC2)c2cc(N3CCNCC3)c(F)cc2c1=O [CIPROFLOXACIN] | g | 179.8
Clc1ccccc1CN1CCc2sccc2C1 [TICLOPIDINE] | g | 209.7

* * *

Organism: Rattus norvegicus
METHOD NOTES: Open TG-GATES - Regimen: Single
Assay type: toxicity, organism-based, Sprague-Dawley
Design: regimen Single, gender Male, age 6 weeks
CONDITION NOTES: in vivo, po, 1000 mg/kg, 9 h, tissue Plasma, route gavage, dose level High

COMPOUND | TC (mg/dL)
C[C@H](CS)C(=O)N1CCC[C@H]1C(=O)O | 68.4
O=C(O)c1cn(C2CC2)c2cc(N3CCNCC3)c(F)cc2c1=O | 78
CCc1cc(C(N)=S)ccn1 [ETHIONAMIDE] | 59.4
O=C(O)c1cc(/N=N/c2ccc(S(=O)(=O)Nc3ccccn3)cc2)ccc1O | 72.6
Clc1ccccc1CN1CCc2sccc2C1 | 74.8

* * *

Species: Rattus norvegicus
METHOD NOTES: Open TG-GATES - Regimen: Daily Repeat
Assay type: toxicity, organism-based, Sprague-Dawley
Design: regimen Daily Repeat, gender Male, age 6 weeks
CONDITION NOTES: in vivo, po, 0 mg/kg, 72 h, tissue Liver, route gavage, dose level Control, time 3 day
Recorded LIVER, one value per entry.
OUTCOME MEASURE: LIVER (g)

COMPOUND | MEASURED NUMBER
COc1ccc(Cc2nccc3cc(OC)c(OC)cc23)cc1OC | 11.4
Clc1ccccc1CN1CCc2sccc2C1 | 11.1
O=C(O)c1cc(/N=N/c2ccc(S(=O)(=O)Nc3ccccn3)cc2)ccc1O | 11.2
Cn1c(=O)c2[nH]cnc2n(C)c1=O.O | 12.2
COc1ccc2c(c1)c(CC(=O)O)c(C)n2C(=O)c1ccc(Cl)cc1 | 11.9
CSc1ccc2c(c1)N(CCC1CCCCN1C)c1ccccc1S2 (stereo not given) | 12
CCc1cc(C(N)=S)ccn1 [ETHIONAMIDE] | 12.8
CN(C)CCC=C1c2ccccc2CCc2ccccc21 | 10.7
O=C(O)c1cn(C2CC2)c2cc(N3CCNCC3)c(F)cc2c1=O | 9.9
NC(=O)N/N=C/c1ccc([N+](=O)[O-])o1 | 9.8

* * *

Organism: Rattus norvegicus
METHOD NOTES: Open TG-GATES - Regimen: Single
Format: toxicity, organism-based, Sprague-Dawley
Set-up: regimen Single, gender Male, age 6 weeks
CONDITION NOTES: in vivo, po, 100 mg/kg, 9 h, tissue Blood, route gavage, dose level Low
Recorded Lym, one value per entry.

COMPOUND | Lym, %
O=C(O)c1cc(/N=N/c2ccc(S(=O)(=O)Nc3ccccn3)cc2)ccc1O [SULFASALAZINE] | 82.4
CCc1cc(C(N)=S)ccn1 [ETHIONAMIDE] | 70
Clc1ccccc1CN1CCc2sccc2C1 [TICLOPIDINE] | 74.6
O=C(O)c1cn(C2CC2)c2cc(N3CCNCC3)c(F)cc2c1=O [CIPROFLOXACIN] | 77.2
C[C@H](CS)C(=O)N1CCC[C@H]1C(=O)O [CAPTOPRIL] | 74

* * *

Organism: Rattus norvegicus
METHOD NOTES: Open TG-GATES - Regimen: Single
Assay type: toxicity, organism-based, Sprague-Dawley
Parameters: regimen Single, gender Male, age 6 weeks
CONDITION NOTES: in vivo, po, 0 mg/kg, 24 h, tissue Blood, route gavage, dose level Control
Lab note: compare Ret against 8%. Equal or greater, write class 1. Smaller, write class 0.

COMPOUND | CLASS LABEL
NC(=O)N/N=C/c1ccc([N+](=O)[O-])o1 [NITROFURAZONE] | class 1
O=C(O)c1cn(C2CC2)c2cc(N3CCNCC3)c(F)cc2c1=O [CIPROFLOXACIN] | class 1
COc1ccc(Cc2nccc3cc(OC)c(OC)cc23)cc1OC [PAPAVERINE] | class 0
Clc1ccccc1CN1CCc2sccc2C1 [TICLOPIDINE] | class 0
CSc1ccc2c(c1)N(CCC1CCCCN1C)c1ccccc1S2 (stereo not drawn) [THIORIDAZINE] | class 1
CN(C)CCC=C1c2ccccc2CCc2ccccc21 [AMITRIPTYLINE] | class 1
O=C(O)c1cc(/N=N/c2ccc(S(=O)(=O)Nc3ccccn3)cc2)ccc1O [SULFASALAZINE] | class 0
Cn1c(=O)c2[nH]cnc2n(C)c1=O.O [THEOPHYLLINE] | class 0
NC(=O)N1c2ccccc2C=Cc2ccccc21 [CARBAMAZEPINE] | class 0
COc1cc2c(c3oc(=O)c4c(c13)CCC4=O)[C@@H]1C=CO[C@@H]1O2 [AFLATOXIN] | class 1
C[C@H](CS)C(=O)N1CCC[C@H]1C(=O)O [CAPTOPRIL] | class 1
CC(=O)Oc1ccccc1C(=O)O [ASPIRIN] | class 0

* * *

Recorded Cl, one value per entry.
Organism: Rattus norvegicus
METHOD NOTES: Open TG-GATES - Regimen: Single
Format: toxicity, organism-based, Sprague-Dawley
Design: regimen Single, gender Male, age 6 weeks
CONDITION NOTES: in vivo, po, 0 mg/kg, 9 h, tissue Plasma, route gavage, dose level Control

COMPOUND | MEASURE UNIT | Cl
COc1ccc(Cc2nccc3cc(OC)c(OC)cc23)cc1OC [PAPAVERINE] | meq/L | 105.8
CC(=O)Oc1ccccc1C(=O)O [ASPIRIN] | meq/L | 104
NC(=O)N1c2ccccc2C=Cc2ccccc21 [CARBAMAZEPINE] | meq/L | 102
CN(C)CCC=C1c2ccccc2CCc2ccccc21 [AMITRIPTYLINE] | meq/L | 106.6
CCc1cc(C(N)=S)ccn1 [ETHIONAMIDE] | meq/L | 107
NC(=O)N/N=C/c1ccc([N+](=O)[O-])o1 [NITROFURAZONE] | meq/L | 105
O=C(O)c1cc(/N=N/c2ccc(S(=O)(=O)Nc3ccccn3)cc2)ccc1O [SULFASALAZINE] | meq/L | 103
Cn1c(=O)c2[nH]cnc2n(C)c1=O.O [THEOPHYLLINE] | meq/L | 105.8

// provenance: ChEMBL document CHEMBL3885861
